// provenance: ChEMBL document CHEMBL4706681

# Target of assay: Amine oxidase [flavin-containing] A (Homo sapiens, UniProt P21397)
# Sequence (P21397 whole entry): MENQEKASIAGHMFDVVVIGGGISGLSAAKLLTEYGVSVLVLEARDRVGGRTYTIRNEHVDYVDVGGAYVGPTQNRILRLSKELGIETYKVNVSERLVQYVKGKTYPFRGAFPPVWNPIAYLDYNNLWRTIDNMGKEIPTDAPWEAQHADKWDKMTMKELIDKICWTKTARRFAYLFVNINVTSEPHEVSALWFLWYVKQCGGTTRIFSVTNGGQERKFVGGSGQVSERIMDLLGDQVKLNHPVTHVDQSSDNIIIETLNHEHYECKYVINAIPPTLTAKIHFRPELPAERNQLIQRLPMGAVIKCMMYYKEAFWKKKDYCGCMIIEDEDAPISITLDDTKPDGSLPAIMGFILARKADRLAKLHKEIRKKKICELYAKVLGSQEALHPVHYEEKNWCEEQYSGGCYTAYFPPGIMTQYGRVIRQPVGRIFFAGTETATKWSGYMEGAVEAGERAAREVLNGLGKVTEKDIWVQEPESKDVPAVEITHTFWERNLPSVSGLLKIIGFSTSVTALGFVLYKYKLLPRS
# Protocol: Reversible inhibition of human MAO-A assessed as residual enzyme activity at 4 fold IC50 incubated for 15 mins and measured before dialysis by dialysis method relative to control
Known Activity of a selection of compounds
Measured attribute: Activity (%)

| Compound | Measurement |
| --- | --- |
| NCCNC(=O)c1ccc(Cl)cn1 [LAZABEMIDE] | 11 |
| COc1ccccc1C(/C=C/c1ccccc1Cl)=N/NC(=O)Cn1c(=O)oc2ccc(Cl)cc21 | 21.91 |
| COc1cccc(C2CC(c3ccccc3)=NN2C(=O)Cn2c(=O)oc3ccccc32)c1 (stereo not given) | 24.55 |
| COc1ccc(C(/C=C/c2cccc(OC)c2OC)=N/NC(=O)Cn2c(=O)oc3ccc(Cl)cc32)cc1 | 20.16 |
| COc1ccc(C2CC(c3ccccc3)=NN2C(=O)Cn2c(=O)oc3ccccc32)cc1OC (stereo not given) | 23.11 |

---

# Protocol: Selectivity index, ratio of Ki for inhibition of recombinant human MAO-A to Ki for inhibition of recombinant human MAO-B using p-tyramine as substrate
Measured attribute: Ratio Ki

| Compound | Measured attribute | Measurement |
| --- | --- | --- |
| COc1ccc(C2=NN(C(=O)Cn3c(=O)oc4ccc(Cl)cc43)C(c3ccccc3Cl)C2)cc1 (stereo unspecified) | Ratio Ki | 0.003 |
| COc1cccc(C2CC(c3ccc(C)cc3)=NN2C(=O)Cn2c(=O)oc3ccc(C)cc32)c1OC (stereo unspecified) | Ratio Ki | 0.005 |
| COc1cccc(C2CC(c3ccccc3)=NN2C(=O)Cn2c(=O)oc3ccccc32)c1 (stereo unspecified) | Ratio Ki | 0.00097 |
| Cc1ccc(C2CC(c3ccccc3)=NN2C(=O)Cn2c(=O)oc3ccc(C)cc32)cc1 (stereo unspecified) | Ratio Ki | 0.002 |

---

# Protocol: Selectivity index, ratio of Ki for inhibition of recombinant human MAO-A to Ki for inhibition of recombinant human MAO-B using p-tyramine as substrate
Measured attribute: Ratio Ki

| Compound | Measurement |
| --- | --- |
| COc1ccc(C2=NN(C(=O)Cn3c(=O)oc4ccc(C)cc43)C(c3ccccc3)C2)cc1 (centres undefined) | 0.107 |
| COc1ccc(C2=NN(C(=O)Cn3c(=O)oc4ccccc43)C(c3ccccc3)C2)cc1 (centres undefined) | 0.001 |
| COc1ccccc1C1=NN(C(=O)Cn2c(=O)oc3ccc(Cl)cc32)C(c2ccccc2Cl)C1 (centres undefined) | 0.005 |
| COc1ccc(C2=NN(C(=O)Cn3c(=O)oc4ccc(Cl)cc43)C(c3ccccc3)C2)cc1 (centres undefined) | 0.002 |

---

# Protocol: Permeability of compound in PBS/EtOH buffer (70:30) at 25 ug/ml incubated for 16 hrs by UV plate reader based PAMPA-BBB
Known Papp at 16 h, 25 ug/ml of a selection of compounds

| Compound | Papp at 16 h, 25 ug/ml, ×10⁻⁶ cm/s |
| --- | --- |
| COc1ccccc1/C=C/C(=N\NC(=O)Cn1c(=O)oc2ccc(Cl)cc21)c1ccccc1 | 14.6 |
| COc1ccc(C2=NN(C(=O)Cn3c(=O)oc4ccccc43)C(c3ccccc3Cl)C2)cc1 (centres undefined) | 11 |
| COc1ccccc1C(/C=C/c1ccccc1Cl)=N/NC(=O)Cn1c(=O)oc2ccc(Cl)cc21 | 14 |
| CCn1cc(C(=O)O)c(=O)c2cc(F)c(N3CCNC(C)C3)c(F)c21 (centres undefined) | 0.99 |
| COc1ccc(C2=NN(C(=O)Cn3c(=O)oc4ccc(C)cc43)C(c3cccc(OC)c3OC)C2)cc1 (centres undefined) | 8.05 |
| C[C@]12CC[C@@H]3c4ccc(O)cc4CC[C@H]3[C@@H]1CC[C@@H]2O | 9.99 |
| COc1cccc(C2CC(c3ccccc3)=NN2C(=O)Cn2c(=O)oc3ccccc32)c1 (centres undefined) | 8.9 |
| COc1ccc(C2CC(c3ccccc3)=NN2C(=O)Cn2c(=O)oc3ccccc32)cc1OC (centres undefined) | 9.44 |
| NCCc1ccc(O)c(O)c1 | 0.32 |

---

# Target of assay: Amine oxidase [flavin-containing] B (Homo sapiens)
# Sequence (P27338 whole entry): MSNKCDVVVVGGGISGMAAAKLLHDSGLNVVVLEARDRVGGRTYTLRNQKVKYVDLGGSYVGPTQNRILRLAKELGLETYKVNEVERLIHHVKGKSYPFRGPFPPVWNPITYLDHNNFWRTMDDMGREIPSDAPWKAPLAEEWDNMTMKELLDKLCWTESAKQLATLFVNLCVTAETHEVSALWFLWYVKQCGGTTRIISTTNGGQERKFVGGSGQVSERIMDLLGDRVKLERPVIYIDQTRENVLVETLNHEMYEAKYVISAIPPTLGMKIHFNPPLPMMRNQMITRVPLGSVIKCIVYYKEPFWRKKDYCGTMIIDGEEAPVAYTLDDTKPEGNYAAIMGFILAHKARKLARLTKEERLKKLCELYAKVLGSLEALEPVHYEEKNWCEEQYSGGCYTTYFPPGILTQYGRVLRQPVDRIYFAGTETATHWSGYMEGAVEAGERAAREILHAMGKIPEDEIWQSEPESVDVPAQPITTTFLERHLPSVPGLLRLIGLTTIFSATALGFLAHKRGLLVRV
# Protocol: Inhibition of recombinant human MAO-B expressed in baculovirus infected BTI insect cells using p-tyramine as substrate incubated for 30 mins by Amplex red reagent based fluorescence analysis
Known Ki of a selection of compounds

| Compound | Target of assay | Ki [µM] |
| --- | --- | --- |
| COc1cccc(/C=C/C(=N\NC(=O)Cn2c(=O)oc3ccccc32)c2ccccc2)c1 | Amine oxidase [flavin-containing] B (Homo sapiens) | 8.9 |
| COc1cccc(C2=NN(C(=O)Cn3c(=O)oc4ccc(C)cc43)C(c3ccccc3Cl)C2)c1 (stereo unspecified) | Amine oxidase [flavin-containing] B (Homo sapiens) | 24.3 |
| COc1cccc(C2CC(c3ccccc3)=NN2C(=O)Cn2c(=O)oc3ccc(Cl)cc32)c1 (stereo unspecified) | Amine oxidase [flavin-containing] B (Homo sapiens) | 1 |
| COc1cccc(C2=NN(C(=O)Cn3c(=O)oc4ccccc43)C(c3ccccc3Cl)C2)c1 (stereo unspecified) | Amine oxidase [flavin-containing] B (Homo sapiens) | 7.5 |
| Cc1ccc(C2CC(c3ccccc3)=NN2C(=O)Cn2c(=O)oc3ccc(C)cc32)cc1 (stereo unspecified) | Amine oxidase [flavin-containing] B (Homo sapiens) | 5.22 |
| COc1ccc(C(/C=C/c2cccc(OC)c2OC)=N/NC(=O)Cn2c(=O)oc3ccc(Cl)cc32)cc1 | Amine oxidase [flavin-containing] B (Homo sapiens) | 1850 |
| COc1ccc(C2=NN(C(=O)Cn3c(=O)oc4ccccc43)C(c3cccc(OC)c3OC)C2)cc1 (stereo unspecified) | Amine oxidase [flavin-containing] B (Homo sapiens) | 255 |
| Cc1ccc(C2=NN(C(=O)Cn3c(=O)oc4ccc(Cl)cc43)C(c3ccccc3)C2)cc1 (stereo unspecified) | Amine oxidase [flavin-containing] B (Homo sapiens) | 55.6 |
| COc1cccc(C2CC(c3ccc(C)cc3)=NN2C(=O)Cn2c(=O)oc3ccc(C)cc32)c1OC (stereo unspecified) | Amine oxidase [flavin-containing] B (Homo sapiens) | 52 |
| COc1cccc(C2=NN(C(=O)Cn3c(=O)oc4ccc(Cl)cc43)C(c3ccccc3Cl)C2)c1 (stereo unspecified) | Amine oxidase [flavin-containing] B (Homo sapiens) | 2.55 |
| Cc1ccc(C2CC(c3ccccc3)=NN2C(=O)Cn2c(=O)oc3ccc(Cl)cc32)cc1 (stereo unspecified) | Amine oxidase [flavin-containing] B (Homo sapiens) | 8.55 |

---

# Protocol: Selectivity index, ratio of Ki for inhibition of recombinant human MAO-A to Ki for inhibition of recombinant human MAO-B using p-tyramine as substrate
Measured attribute: Ratio Ki

| Compound | Measurement |
| --- | --- |
| COc1cccc(C2=NN(C(=O)Cn3c(=O)oc4ccccc43)C(c3ccccc3Cl)C2)c1 (centres undefined) | 0.008 |
| COc1cccc(C2CC(c3ccccc3)=NN2C(=O)Cn2c(=O)oc3ccc(Cl)cc32)c1 (centres undefined) | 0.985 |
| Cc1ccc(C2CC(c3ccccc3)=NN2C(=O)Cn2c(=O)oc3ccccc32)cc1 (centres undefined) | 0.000446 |
| Cc1ccc(C2=NN(C(=O)Cn3c(=O)oc4ccc(C)cc43)C(c3ccccc3)C2)cc1 (centres undefined) | 0.002 |
| COc1ccccc1C1=NN(C(=O)Cn2c(=O)oc3ccccc32)C(c2ccccc2Cl)C1 (centres undefined) | 0.011 |

---

# Protocol: Selectivity index, ratio of Ki for inhibition of recombinant human MAO-A to Ki for inhibition of recombinant human MAO-B using p-tyramine as substrate
Classify as follows. Reported Ratio Ki greater than or equal to 0.006: Condition met. Reported Ratio Ki below: Condition not met.

| Molecule | Discrete label |
| --- | --- |
| Cc1ccc(C2=NN(C(=O)Cn3c(=O)oc4ccccc43)C(c3ccccc3)C2)cc1 (centres undefined) | Condition not met |
| COc1ccc(C2=NN(C(=O)Cn3c(=O)oc4ccc(C)cc43)C(c3ccccc3Cl)C2)cc1 (centres undefined) | Condition met |
| COc1cccc(C2=NN(C(=O)Cn3c(=O)oc4ccc(Cl)cc43)C(c3ccccc3Cl)C2)c1 (centres undefined) | Condition met |
| Cc1ccc(C2CC(c3ccccc3)=NN2C(=O)Cn2c(=O)oc3ccc(Cl)cc32)cc1 (centres undefined) | Condition not met |
| COc1ccc(C2CC(c3ccccc3)=NN2C(=O)Cn2c(=O)oc3ccc(C)cc32)cc1OC (centres undefined) | Condition not met |
